Provide the reported pKi of each item.
The value called pKi is obtained by taking minus log10 of the concentration in mol/L.

The compound N#Cc1cc(C(=O)N[C@@H]2CC[C@@]3(O)[C@H]4Cc5ccc(O)c6c5[C@@]3(CCN4CC3CC3)[C@H]2O6)ccn1 on Mu-type opioid receptor (Homo sapiens): pKi was 8.90

The compound COc1cnccc1C(=O)N[C@@H]1CC[C@@]2(O)[C@H]3Cc4ccc(O)c5c4[C@@]2(CCN3CC2CC2)[C@H]1O5 on Mu-type opioid receptor (Homo sapiens): pKi was 9.37

The compound O=C(N[C@@H]1CC[C@@]2(O)[C@H]3Cc4ccc(O)c5c4[C@@]2(CCN3CC2CC2)[C@H]1O5)c1ccnnc1 on Mu-type opioid receptor (Homo sapiens): pKi was 8.68

The compound COc1cc(C(=O)N[C@@H]2CC[C@@]3(O)[C@H]4Cc5ccc(O)c6c5[C@@]3(CCN4CC3CC3)[C@H]2O6)ccn1 on Mu-type opioid receptor (Homo sapiens): pKi was 9.22

Source: ChEMBL document CHEMBL2176919
